Data provenance is patent US8314123B2.

tested on: MDA-MB-231 (breast); assay: In vitro cell proliferation assay (SRB), MDA-MB-231; assay type: cell-based; settings: Homo sapiens, SRB method, 96 hours, read-out: Inhibition of cell growth (IC50, μM) MDA-MB-231
Entries annotated with measured IC50
Hi! Could you send only the number? It should be in µM, unit omitted.

Examples with their reported IC50 follow.
Cc1ccc2c(N)nc(-c3ccccc3C)cc2c1.Cl [Compound 23, hydrochloride salt]    0.15
COc1cc2cc(-c3ccccc3)nc(N)c2cc1OC    0.44
COc1ccc(-c2cc3ccc(C)cc3c(N)n2)c(C)c1    0.079
Cc1cccc(-c2cc3cc(C)ccc3c(N)n2)c1    0.57
Cc1ccc2c(N)nc(-c3c(C)cccc3C)cc2c1    0.14

# input Requested field: IC50. Item: COc1cc2cc(-c3c(C)cccc3C)nc(N)c2cc1OC
# output 0.25

# input Requested field: IC50. Item: COc1ccc(-c2cc3cc(C)ccc3c(N)n2)c(C)c1
# output 0.15

# input Requested field: IC50. Item: Cc1ccc2c(N)nc(-c3ccccc3F)cc2c1
# output 0.55

# input Requested field: IC50. Item: COc1ccc(-c2cc3cc(C)ccc3c(N)n2)cc1OC
# output 0.66

---

system: MDA-MB-231 (breast); assay: In vitro cell proliferation assay (SRB), MDA-MB-231; assay type: cell-based; conditions: Homo sapiens, SRB method, 96 hours, read-out: Inhibition of cell growth (IC50, μM) MDA-MB-231
MEASURED_PARAMETER: log10(IC50) (log10 of the value in µM)
Please interpret these as log10 of IC50 where IC50 is in µM.

Examples with their reported log10(IC50) follow.
Cc1cccc(-c2cc3ccc(C)cc3c(N)n2)c1    -0.68
Cc1ccc2cc(-c3c(C)cccc3C)nc(N)c2c1    -1.29
COc1cc2cc(-c3ccccc3C)nc(N)c2cc1OC    -0.27
COc1ccccc1-c1cc2cc(C)ccc2c(N)n1    -0.36

# input Requested field: log10(IC50). Item: COc1cc(OC)cc(-c2cc3ccc(N(C)C)cc3c(N)n2)c1.Cl [Compound 16, hydrochloride]
# output -1.57

# input Requested field: log10(IC50). Item: Cc1cccc(-c2cc3ccc(N(C)C)cc3c(N)n2)c1.Cl [Compound 14, hydrochloride]
# output -1.68

# input Requested field: log10(IC50). Item: COc1cccc(-c2cc3cc(OC)c(OC)cc3c(N)n2)c1
# output -0.85

# input Requested field: log10(IC50). Item: COc1ccc2c(N)nc(-c3ccccc3)cc2c1
# output -0.47

# input Requested field: log10(IC50). Item: COc1cccc(-c2cc3ccc(C)cc3c(N)n2)c1
# output -0.77
